B1: Transcription intermediary factor 1-beta, residues 620 to 671; numbered along this chain, Q13263 (parent)
chain: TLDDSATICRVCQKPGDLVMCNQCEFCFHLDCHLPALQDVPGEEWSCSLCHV

variants of: B1; assay: abundance fitness (aPCA) (normalised: wild type 0, dead -1); higher = more abundant; growth selection in yeast, the domain comes from the species named; conditions: Homo sapiens
Reported abundance fitness by item:
experimentalReadout: abundance fitness

mutationName	experimentalReadout	reportedMeasurement
V52S	abundance fitness	0.075
P35F	abundance fitness	-0.637
V40R	abundance fitness	0.166
L18P	abundance fitness	-0.729
L37M	abundance fitness	-0.083
H33R	abundance fitness	-0.109
L2S	abundance fitness	-0.004
H51M	abundance fitness	0.021
G16A	abundance fitness	-0.639
D39A	abundance fitness	-0.175
C47V	abundance fitness	-0.807
P41V	abundance fitness	-0.254
H29D	abundance fitness	-0.883
Q13C	abundance fitness	0.091
Q38S	abundance fitness	-0.295
D17L	abundance fitness	-0.301
G42Q	abundance fitness	-0.028
V19C	abundance fitness	-0.536
L30N	abundance fitness	-0.264
H29L	abundance fitness	-1.01
Q13G	abundance fitness	-0.016
C9N	abundance fitness	-0.469
Q38E	abundance fitness	-0.434
D4S	abundance fitness	0.016
D17G	abundance fitness	0.076
C21N	abundance fitness	-0.565
T7M	abundance fitness	-0.143
D39I	abundance fitness	-0.121
C21I	abundance fitness	-0.807
L49K	abundance fitness	0.27
C12Y	abundance fitness	-1
S46C	abundance fitness	-0.116
A36L	abundance fitness	-0.173
L30Q	abundance fitness	-0.432
D3N	abundance fitness	-0.112
C47E	abundance fitness	-0.295
L2K	abundance fitness	-0.056
W45H	abundance fitness	-0.103
M20V	abundance fitness	-0.322
G42C	abundance fitness	-0.222
C47W	abundance fitness	-0.951
V52P	abundance fitness	0.041
N22I	abundance fitness	-0.316
G16E	abundance fitness	-0.307
S46F	abundance fitness	-0.129
E43C	abundance fitness	-0.129

Measured values drawn from the Human Domainome abundance scans (Beltran et al. 2025) for this set.
